target: C3b (biotinylated, captured site-specifically on a streptavidin chip) (UniProt P01024); assay: SPR (Biacore 3000), single-cycle kinetics, biotinylated C3b on streptavidin chip, peptide as analyte, 1:1 Langmuir fit
Bridge positions count the residues as written; N and C are the ends. Square brackets hold non-standard residues; d marks the D form. Ends that are not written are not given here. Trp(1-Me) = Cn1cc(C[C@H](N)C(=O)O)c2ccccc21; NMeI = CC[C@H](C)[C@H](NC)C(=O)O; Sar = CNCC(=O)O
ASSAY_METRIC: pKd
Scale: negative log10 of molar concentration, which is what pKd denotes.

query: Query: pKd; subject: FICV[Trp(1-Me)]QDW[Sar]AHRC[NMeI]-NH2 (disulfide 3-13; N-terminus assumed; SMILES CC[C@H](C)[C@H](NC(=O)[C@@H](N)Cc1ccccc1)C(=O)N[C@H]1CSSC[C@@H](C(=O)N(C)[C@H](C(N)=O)[C@@H](C)CC)NC(=O)[C@H](CCCNC(=N)N)NC(=O)[C@H](Cc2c[nH]cn2)NC(=O)[C@H](C)NC(=O)CN(C)C(=O)[C@H](Cc2c[nH]c3ccccc23)NC(=O)[C@H](CC(=O)O)NC(=O)[C@H](CCC(N)=O)NC(=O)[C@H](Cc2cn(C)c3ccccc23)NC(=O)[C@H](C(C)C)NC1=O) [Peptide 5: Phe-Ile-[Cys-Val-Trp(Me)-Gln-Asp-Trp-Sar-Ala-His-Arg-Cys]-mIle-NH2]
result: 8.80

query: Thanks! And YGCV[Trp(1-Me)]QDW[Sar]AHRC[NMeI]-NH2 (disulfide 3-13; N-terminus assumed; SMILES CC[C@H](C)[C@@H](C(N)=O)N(C)C(=O)[C@@H]1CSSC[C@H](NC(=O)CNC(=O)[C@@H](N)Cc2ccc(O)cc2)C(=O)N[C@@H](C(C)C)C(=O)N[C@@H](Cc2cn(C)c3ccccc23)C(=O)N[C@@H](CCC(N)=O)C(=O)N[C@@H](CC(=O)O)C(=O)N[C@@H](Cc2c[nH]c3ccccc23)C(=O)N(C)CC(=O)N[C@@H](C)C(=O)N[C@@H](Cc2c[nH]cn2)C(=O)N[C@@H](CCCNC(=N)N)C(=O)N1) [Peptide 20: Tyr-Gly-[Cys-Val-Trp(Me)-Gln-Asp-Trp-Sar-Ala-His-Arg-Cys]-mIle-NH2] ?
result: 8.46

query: Thanks! And RICV[Trp(1-Me)]QDW[Sar]AHRC[NMeI]-NH2 (disulfide 3-13; N-terminus assumed; SMILES CC[C@H](C)[C@H](NC(=O)[C@@H](N)CCCNC(=N)N)C(=O)N[C@H]1CSSC[C@@H](C(=O)N(C)[C@H](C(N)=O)[C@@H](C)CC)NC(=O)[C@H](CCCNC(=N)N)NC(=O)[C@H](Cc2c[nH]cn2)NC(=O)[C@H](C)NC(=O)CN(C)C(=O)[C@H](Cc2c[nH]c3ccccc23)NC(=O)[C@H](CC(=O)O)NC(=O)[C@H](CCC(N)=O)NC(=O)[C@H](Cc2cn(C)c3ccccc23)NC(=O)[C@H](C(C)C)NC1=O) [Peptide 6: Arg-Ile-[Cys-Val-Trp(Me)-Gln-Asp-Trp-Sar-Ala-His-Arg-Cys]-mIle-NH2] ?
result: 8.77

query: Thanks! And TICV[Trp(1-Me)]QDW[Sar]AHRC[NMeI]-NH2 (disulfide 3-13; N-terminus assumed; SMILES CC[C@H](C)[C@H](NC(=O)[C@@H](N)[C@@H](C)O)C(=O)N[C@H]1CSSC[C@@H](C(=O)N(C)[C@H](C(N)=O)[C@@H](C)CC)NC(=O)[C@H](CCCNC(=N)N)NC(=O)[C@H](Cc2c[nH]cn2)NC(=O)[C@H](C)NC(=O)CN(C)C(=O)[C@H](Cc2c[nH]c3ccccc23)NC(=O)[C@H](CC(=O)O)NC(=O)[C@H](CCC(N)=O)NC(=O)[C@H](Cc2cn(C)c3ccccc23)NC(=O)[C@H](C(C)C)NC1=O) [Peptide 8: Thr-Ile-[Cys-Val-Trp(Me)-Gln-Asp-Trp-Sar-Ala-His-Arg-Cys]-mIle-NH2] ?
result: 8.59
